The reported measurements were obtained from ChEMBL document CHEMBL1772954.

Task for the reader: assign each of the following compounds its reported MFC.
# Test system: Candida albicans
# protocolDetails: Antifungal activity against Candida albicans ATCC 10213
# Type: functional

*Q* Give the value of MFC reported for the following: CC1=CC(O)N(Cc2ccccc2)C1=O (centres undefined)
*A* > 250 µg/mL

*Q* Read off the recorded MFC for O=C1C=CC(O)N1c1ccccc1 (centres undefined)
*A* > 250 µg/mL

*Q* Give reported MFC value for O=C1C(c2ccccc2)=C(c2ccccc2)C(=O)N1CCCc1ccccc1
*A* > 250 µg/mL

*Q* Tell me its MFC given CC1=C(C)C(=O)N(CCCCc2ccccc2)C1=O as the entry.
*A* > 250 µg/mL

*Q* Give reported MFC value for CC1=CC(O)N(CCCCc2ccccc2)C1=O (centres undefined)
*A* > 250 µg/mL

*Q* Let me know recorded MFC for O=C1C=CC(O)N1Cc1ccccc1 (centres undefined) , thanks.
*A* > 250 µg/mL

*Q* Retrieve MFC measured for CC1=C(C)C(=O)N(CCCc2ccccc2)C1=O and print it.
*A* > 250 µg/mL

*Q* Output MFC of O=C1C=CC(O)N1CCCc1ccccc1 (centres undefined)
*A* > 250 µg/mL

*Q* Note down MFC recorded for CC1=CC(=O)N(CCCc2ccccc2)C1=O
*A* 125 µg/mL

*Q* State its MFC for this compound: O=C1CCC(=O)N1CCc1ccccc1
*A* > 250 µg/mL

*Q* Provide only the value of recorded MFC for O=C(O)/C=C\C(=O)Nc1ccccc1
*A* > 250 µg/mL

*Q* Give the reported MFC for this compound. CC1=CC(=O)N(CCc2ccccc2)C1O (centres undefined)
*A* > 250 µg/mL

*Q* Indicate its recorded MFC; the compound in question is CCN1C(=O)C=CC1=O [N-ETHYLMALEIMIDE]
*A* 250 µg/mL

*Q* Please report MFC for the following compound: CC1=CC(=O)N(CCCc2ccccc2)C1O (centres undefined)
*A* > 250 µg/mL

*Q* Name the recorded MFC of the compound listed here: CC(=O)N1CCN(c2ccc(OCC3COC(Cn4ccnc4)(c4ccc(Cl)cc4Cl)O3)cc2)CC1 (centres undefined)
*A* 1.95 µg/mL

*Q* Complete the entry with MFC for CC1=CC(=O)N(CCCCc2ccccc2)C1O (centres undefined)
*A* > 250 µg/mL

*Q* Name the recorded MFC of the compound listed here: CC1=C(C)C(=O)N(Cc2ccccc2)C1=O
*A* > 250 µg/mL

*Q* Note down MFC recorded for CC1=CC(=O)N(c2ccccc2)C1O (centres undefined)
*A* > 250 µg/mL

*Q* Given the compound CCCN1C(=O)C=CC1=O , write its reported MFC.
*A* 125 µg/mL

*Q* Retrieve MFC measured for O=C1C(Cl)=C(Cl)C(=O)N1CCCc1ccccc1 and print it.
*A* 15.6 µg/mL

*Q* Return MFC (reported value) for this compound: COc1cccc(N2C(=O)C=CC2=O)c1
*A* 62.5 µg/mL

*Q* Look up and state reported MFC for O=C1C(c2ccccc2)=C(c2ccccc2)C(=O)N1c1ccccc1
*A* > 250 µg/mL

*Q* In one line, give reported MFC of the entry CC1=C(C)C(=O)N(CCc2ccccc2)C1=O .
*A* > 250 µg/mL

*Q* Entry O=C1C(Cl)=C(Cl)C(=O)N1c1ccccc1 needs its MFC filled in; supply it.
*A* > 250 µg/mL

*Q* Give MFC for O=C1CCC(=O)N1c1ccccc1
*A* > 250 µg/mL

*Q* Return the recorded MFC value; entry: O=C1C=CC(=O)N1c1ccc2c(c1)OCO2
*A* 62.5 µg/mL

*Q* Tell me measured MFC for O=C(O)/C=C\C(=O)NCc1ccccc1 please.
*A* > 250 µg/mL

*Q* Assign MFC to the following record: O=C1C=CC(O)N1CCc1ccccc1 (centres undefined)
*A* 125 µg/mL

*Q* State, in one line, measured MFC of Cc1ccccc1N1C(=O)C=CC1=O
*A* 15.6 µg/mL

*Q* Supply measured MFC of O=C1C=CC(=O)N1c1ccc(F)cc1 in your reply.
*A* 15.6 µg/mL

*Q* Report measured MFC; entry is CN1C(=O)C=CC1=O
*A* 125 µg/mL

*Q* Look up MFC of O=C1C=CC(=O)N1c1ccc(Cl)cc1 and report it.
*A* 62.5 µg/mL

*Q* Respond only with MFC recorded for COc1ccc(N2C(=O)C=CC2=O)cc1
*A* 125 µg/mL

*Q* Provide one value: measured MFC of CC1=CC(O)N(c2ccccc2)C1=O (centres undefined)
*A* > 250 µg/mL

*Q* Input O=C(O)/C=C\C(=O)NCCCCc1ccccc1 , output reported MFC.
*A* > 250 µg/mL

*Q* Entry O=C1C=CC(=O)N1c1ccc(I)cc1 needs its MFC filled in; supply it.
*A* 62.5 µg/mL

*Q* Entry CC1=CC(=O)N(CCCCc2ccccc2)C1=O needs its MFC filled in; supply it.
*A* 125 µg/mL

*Q* Answer with the recorded MFC of CC1=CC(=O)N(Cc2ccccc2)C1O (centres undefined) only.
*A* > 250 µg/mL

*Q* Indicate its recorded MFC; the compound in question is O=C1C=CC(O)N1CCCCc1ccccc1 (centres undefined)
*A* > 250 µg/mL

*Q* State its MFC for this compound: O=C1C(Cl)=C(Cl)C(=O)N1CCCCc1ccccc1
*A* 15.6 µg/mL

*Q* Give the reported value of MFC for this record: CC1=CC(=O)N(CCc2ccccc2)C1=O
*A* 125 µg/mL

*Q* Please report the measured MFC for O=C1CCC(=O)N1CCCCc1ccccc1
*A* > 250 µg/mL

*Q* Supply measured MFC of O=C1C=CC(=O)N1Cc1ccccc1 in your reply.
*A* 7.81 µg/mL

*Q* Note MFC for the compound shown: O=C1C(c2ccccc2)=C(c2ccccc2)C(=O)N1CCCCc1ccccc1
*A* > 250 µg/mL

*Q* Look up and report measured MFC for this entry: CC1=CC(=O)N(Cc2ccccc2)C1=O
*A* 125 µg/mL

*Q* Provide only the value of recorded MFC for O=C1C=CC(=O)N1c1ccccc1
*A* 7.81 µg/mL

*Q* Return MFC (reported value) for this compound: O=C1C(c2ccccc2)=C(c2ccccc2)C(=O)N1Cc1ccccc1
*A* > 250 µg/mL

*Q* // fetch MFC given entry O=C1CCC(=O)N1Cc1ccccc1
*A* > 250 µg/mL

*Q* Answer with the recorded MFC of COc1ccc(N2C(=O)C=CC2=O)c(OC)c1 only.
*A* 15.6 µg/mL

*Q* Supply recorded MFC for O=C1C=CC(=O)N1c1ccc(Br)cc1 here.
*A* 31.2 µg/mL

*Q* Please look at this compound and report its MFC: CC1=CC(O)N(CCCc2ccccc2)C1=O (centres undefined)
*A* > 250 µg/mL

*Q* Fill in MFC for record O=C1CCC(=O)N1CCCc1ccccc1
*A* > 250 µg/mL

*Q* Annotate the compound CC1=CC(=O)N(c2ccccc2)C1=O with its measured MFC.
*A* 125 µg/mL

*Q* Specify reported MFC for the compound shown: CC1=CC(O)N(CCc2ccccc2)C1=O (centres undefined)
*A* > 250 µg/mL

* * *

# Tested on: Candida tropicalis
# protocolDetails: Antifungal activity against Candida tropicalis C 131 2000
# Format: functional
endpointName: MIC

*Q* Item CC1=CC(=O)N(CCc2ccccc2)C1=O : provide MIC
*A* 125 µg/mL

*Q* Check the records and state MIC for O=C1C=CC(=O)N1c1ccc(Cl)cc1
*A* 7.81 µg/mL

*Q* For the molecule O=C(O)/C=C\C(=O)NCCc1ccccc1 , report MIC.
*A* > 250 µg/mL

*Q* Fill in reported MIC for this entry: O=C1C=CC(O)N1Cc1ccccc1 (stereo unspecified)
*A* > 250 µg/mL

*Q* Given the molecule O=C1C(c2ccccc2)=C(c2ccccc2)C(=O)N1c1ccccc1 , write its reported MIC.
*A* > 250 µg/mL

*Q* Provide measured MIC value, entry: CC1=CC(O)N(CCCCc2ccccc2)C1=O (stereo unspecified)
*A* > 250 µg/mL

* * *

# Test system: Trichophyton mentagrophytes
# protocolDetails: Antifungal activity against Trichophyton mentagrophytes ATCC 9972
# Format: functional
MIC less than 8 µg/mL is 1.0; MIC greater than or equal to 8 µg/mL is 0.0.

*Q* # check: MIC < 8 µg/mL for O=C(O)/C=C\C(=O)NCCCCc1ccccc1
*A* 0.0

*Q* I wonder whether O=C1CCC(=O)N1Cc1ccccc1 has MIC below 8 µg/mL. Can you tell?
*A* 0.0

*Q* Does O=C1C(c2ccccc2)=C(c2ccccc2)C(=O)N1c1ccccc1 have MIC strictly under 8 µg/mL?
*A* 0.0

*Q* Problem: For the compound O=C1C=CC(O)N1c1ccccc1 (stereo not given) , is MIC under 8 µg/mL?
*A* 0.0

*Q* API: query returns whether the compound falls strictly under 8 µg/mL in MIC. Query: O=C1C=CC(=O)N1CCCc1ccccc1
*A* 1.0

*Q* Lab note: MIC threshold 8 µg/mL. Does this compound come in strictly under it? CCCCN1C(=O)C=CC1=O
*A* 1.0

*Q* State whether 8 µg/mL exceeds MIC recorded for C[C@@H]1[C@H](O)[C@@H](C)/C=C/C=C/C=C/C=C/C=C/C=C/C=C/[C@H](O[C@@H]2O[C@H](C)[C@@H](O)[C@H](N)[C@@H]2O)C[C@@H]2O[C@](O)(C[C@@H](O)C[C@@H](O)[C@H](O)CC[C@@H](O)C[C@@H](O)CC(=O)O[C@H]1C)C[C@H](O)[C@H]2C(=O)O [AMPHOTERICIN B] .
*A* 1.0

*Q* A record lists CC1=CC(O)N(CCCc2ccccc2)C1=O (stereo not given) . Is its MIC below 8 µg/mL?
*A* 0.0

*Q* Please let me know if CC1=CC(=O)N(Cc2ccccc2)C1=O shows MIC below 8 µg/mL.
*A* 0.0

*Q* Is MIC strictly under 8 µg/mL for the entry CC1=CC(O)N(CCc2ccccc2)C1=O (stereo not given) ?
*A* 0.0

*Q* I'd appreciate it if you could check whether O=C1C(c2ccccc2)=C(c2ccccc2)C(=O)N1Cc1ccccc1 has MIC smaller than 8 µg/mL.
*A* 0.0

*Q* Given the entry O=C1C(c2ccccc2)=C(c2ccccc2)C(=O)N1CCc1ccccc1 , would its reported MIC be below 8 µg/mL?
*A* 0.0

*Q* # TODO verify MIC < 8 µg/mL strictly for this compound: CC1=C(C)C(=O)N(CCc2ccccc2)C1=O
*A* 0.0

*Q* Is MIC strictly under 8 µg/mL for the entry CC1=CC(O)N(CCCCc2ccccc2)C1=O (stereo not given) ?
*A* 0.0
